A collection of sequences and their measured apparent KD of K4 kissing-loop reporter
System: K4 kissing-loop RNA reporter
Assay: apparent KD of K4 kissing-loop reporter; higher = weaker reporter binding
Conditions: Eterna round: R107; input ligand: arginine 13.2 mM

Exam item: Given the sequence GGAUAGGAUAGAGGAUAUGGAAAACACAGAAAUAACUUGUUGUGUUUAUCCAUAGGGAGUGAUGUUCCAGAAGGCUGUCCUAUCG [MatMod 20 - Jieux - Exclusion - FMN B] , what is its reported apparent KD of K4 kissing-loop reporter?
Marked response: 0.2 µM

Exam item: Given the sequence GGGAGUAGUGCGGCCGCCACUGAGAAAGAAGAAGAAUGUAGUGAUGUUAUGUAGGAAAGGAAGAACAGGACCGGGCAUUAGAUUU [SSTRyptB.H] , what is its reported apparent KD of K4 kissing-loop reporter?
Marked response: 0.443 µM

====

Tested on: MS2 coat protein
Assay: apparent KD of MS2 coat protein; designed switch direction (-1 OFF switch, 1 ON switch): 1; higher = weaker reporter binding
Conditions: Eterna round: R95; input ligand: microRNA oligo, concentration not stated
quantity kind: apparent KD of MS2 coat protein

Recorded apparent KD of MS2 coat protein, per entry:
sequence code: CUCCCAUGUGCACAGGAUAUGCCGGGAUGCACAUGAGGAUCACCCAUGUAAUCCUGAAAAUAAAAGCAGAAGGGUGAUCAUGGGU [Teriqula] (puzzle: Same State 2)
observed value: 16.5 nM

sequence code: CGUCCGGCCUGUGCUGGCCGGUAGCAUGUACAUGAGGAUCACCCAUGUUCAUGUGCAGGCUUUUUGCUCGUCUUGUG [salish99_mir208a_r3_007] (puzzle: Sensor for hsa-mir-208a)
observed value: 12.3 nM

Exam item: Given the sequence GGUCCGGCCUGAGCUGGACCGAAGCAUGUACAUGAGGAUCACCCAUGUUCAUGUGCAGGCUUUUUGCUCGUCUUGUG [JL-shm-2.05 JL mod] (puzzle: Sensor for hsa-mir-208a) , what is its reported apparent KD of MS2 coat protein?
Marked response: 12.7 nM

====

Test system: MS2 coat protein
Experiment: apparent KD of MS2 coat protein; higher = weaker reporter binding
Conditions: Eterna round: R107; input ligand: theophylline 2 mM
quantity kind: apparent KD of MS2 coat protein (nM)
I only need the number, in nM, no unit after it.

sequence code: CGUGGUUGAGAUGGGCCUCUGAUAAGUCUGCGAGGACCGGUACGGCCGCCACUCGAGGACAUGAGGAUCACCCAUGUACUUCGCG [Vequar]
unit name: nM
observed value: 50.5

Exam item: Given the sequence AGGACCAGGAACAUGGGUGAACUGGUCCAACGAGGACCGGUACGGCCGCCACUCGAAUAAACAUGAGGAUCACCCAUGUAAUAAU [T''-M-T'-T-MS2] , what is its reported apparent KD of MS2 coat protein?
Marked response: 442

Exam item: Given the sequence UGAGUUAGACAAAAGUCUAGCUCUGGUGAAGGAGCGUCCGAAAGGACAGGUAGGUCGCACCACCUGAGGAUCACCCGGGUUCCUA [ArgAS 13 #OpenEnded #AlternativeMS2] , what is its reported apparent KD of MS2 coat protein?
Marked response: 991

====

Tested on: K4 kissing-loop RNA reporter
Assay: apparent KD of K4 kissing-loop reporter; higher = weaker reporter binding
Details: Eterna round: R107; input ligand: none
quantity kind: apparent KD of K4 kissing-loop reporter
Number first, unit second.

Recorded apparent KD of K4 kissing-loop reporter, per entry:
sequence code: GUCCCAGUGAUGUUGGUAGGCGGGCGGGAUACCAGCGGAGACUCACGCCCUUGGCAGCCCACAUAUCCCGCGUAGGGAUUAGCCC [Same State - Theophylline A (Freestyle 23)]
observed value: 316 nM
//
sequence code: UACAUUGCAGUCUUCUUCGUCCUAGAUGACUAGGAUAUCAGGAAACUGAGAAGGAGUCACUGCAGUGAUGUUGCAGCUAGGACGA [KL-SSFMN-A9]
observed value: 110 nM

// switching to the query sequence
Exam item: Given the sequence UCCUGCAAUCGCCCACGAAAGUGGAUCGAUACCAGAGUCGAAAGACUCCCUUGGCAGCGAGUGAUGUUCGAAGCAGGUAAAUAAA , what is its reported apparent KD of K4 kissing-loop reporter?
Marked response: 765 nM

====

Test system: K4 kissing-loop RNA reporter;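 also: bound reporter read as fluorescence of individual clusters on recovered sequencing chips by microscopy, with normalized cluster intensities fitted with a binding model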
Test: apparent KD of K4 kissing-loop reporter; higher = weaker reporter binding
Settings: Eterna round: R107; input ligand: FMN 200 uM
quantity kind: apparent KD of K4 kissing-loop reporter (nM)
I only need the number, in nM, no unit after it.

sequence code: GGAGUUACCUGGGAUACCAGUCGGAGGCCCAGAGCUCGGAGUGAUGUUCUGGGAUGUUUCGGCCCUUGGCAGCUCUGGGUCUCCG [#2 Exclusion - Theophylline B Attempt #4 (HarryS)]
observed value: 822
--
sequence code: AAAUUUAUUAUAUUUGAAUAAAUAUGUGAUACCAGACAUUUAUAAGUCCCUUGGCAGCACAAUGCAGUGAUGUUGCUUAUAAUAA [JR_SSTheophyA_Sub018]
observed value: 89

// switching to the query sequence
Exam item: Given the sequence AUGCGCGUGCGAUGAAAAUCGCACGCGCAUCGAGGACCGGUACGGCCGCCACUCGCUCGCGCCGAGUGAUGUUCGGCCGGCGAAC [#2 Same State - Tryptophan A Attempt #4 (HarryS)] , what is its reported apparent KD of K4 kissing-loop reporter?
Marked response: 278

====

Tested on: MS2 coat protein
Test: apparent KD of MS2 coat protein; higher = weaker reporter binding
Settings: Eterna round: R107; input ligand: none
Given measured apparent KD of MS2 coat protein, output Fulfilled if it is greater than or equal to 60 nM and Not fulfilled if not.

Illustrative cases are given below, each with its answer.
sequence code: CUCCCGUGAGCGGCCGCCACUGGAGGCCUCGCGCGACAUGAGGAUCACCCAUGUUGGCCCGGCCUCAGGACCGGGUUCGCGUGAG [Same State - Tryptophan B Attempt #6 (HarryS)]
system tested: MS2 coat protein
answer label: Not fulfilled
//
sequence code: AGCUCGCAUCCUCUAGCGUCAAAGACGCGUCGAGGACCGGUACGGCCGCCACUCGACUUGAGGAUCACCCAAGUCUAAGCGAGCA [TrypAX 11 #SwitchBubble #AlternativeMS2 #MS2Late #CuTurnoff]
system tested: MS2 coat protein
answer label: Fulfilled
//
sequence code: GGACUAACUGGAAGGAGCGACGCGCAGAAACUGCAAUUUCCUCCACACGAGGAUCACCCGUGUCAGGUAGGUCGCCAGUUAGUCG [ArgBX 29]
system tested: MS2 coat protein
answer label: Not fulfilled

Please examine the following record next.
Exam item: State whether the measured apparent KD of MS2 coat protein reaches 60 nM, counting equality as reaching it, for UGUAUGUGAUCUGAUACCAGUCCAACUGGUAAAAUAUGAGGAUCACCCAUAUAAAAUUGGGACCCUUGGCAGCAGAUCGCAUACU
Marked response: Fulfilled

====

Tested on: MS2 coat protein
Assay: apparent KD of MS2 coat protein; designed switch direction (-1 OFF switch, 1 ON switch): -1; higher = weaker reporter binding
Conditions: input ligand: none
A collection of sequences and their measured apparent KD of MS2 coat protein
I only need the number, in µM, no unit after it.

Recorded apparent KD of MS2 coat protein, per entry:
sequence code: CUCUUGUGAGGAUAUCUCCCAGCGAUUAAUUGGGCAGUCUGAGAGAAGGUACAUGAGGAUCACCCAUGUGAUAG [Eternabot (L1) Solution 73] (Eterna round: R97, puzzle: Exclusion 4)
system tested: MS2 coat protein
unit name: µM
apparent KD of MS2 coat protein: 0.0617
--
sequence code: GAUCUACAUGAGGAUCACCCAUGUAAGGAUAUUGAGUACUCGAAUGGAGAGCAAGGAUCAAGAAGGUGCAAUAU [Eternabot (L1) Solution 79] (Eterna round: R97, puzzle: Exclusion 1)
system tested: MS2 coat protein
unit name: µM
apparent KD of MS2 coat protein: 0.0231
--
sequence code: GCUAGAGCAGGAUAUCUAGAUCCACACAUGAGGAUCACCCAUGUACGGUCGAAAGACCGAAGAGAAGGGCUCUAGC [Omei Ex5 E12] (Eterna round: R97, puzzle: Exclusion 5)
system tested: MS2 coat protein
unit name: µM
apparent KD of MS2 coat protein: 0.067
--
sequence code: AGAACUCUAGUAGGAUAUGUCGGAUAUGUUGUUGAGGUUCACCCAACGACGUCAAUGACAGAGGGACAGAAGGACUCCUGUUCC [pwkr exNG2 2xFMN 1xF5.9] (Eterna round: R96, puzzle: Exclusion NG 2)
system tested: MS2 coat protein
unit name: µM
apparent KD of MS2 coat protein: 1.11

// switching to the query sequence
Exam item: Given the sequence AAUAAUAAACAAGCUUUUUACAUGAGGAUCACCCAUGUCCUCUGCUCGUCUUAUCUUGGGCUUUUUUUGGGUUCGGG [-16.4, -45 kcal, A 21%] (Eterna round: R97, puzzle: Sensor, turn-off variant 1) , what is its reported apparent KD of MS2 coat protein?
Marked response: 0.891
